Exercise: state measured pIC50 for each of the compounds provided.
Molecular target: human full length HSD11β1 (Homo sapiens)
Construct: transient expression of human full length HSD11β1 expression vector
Sequence (P28845 whole entry): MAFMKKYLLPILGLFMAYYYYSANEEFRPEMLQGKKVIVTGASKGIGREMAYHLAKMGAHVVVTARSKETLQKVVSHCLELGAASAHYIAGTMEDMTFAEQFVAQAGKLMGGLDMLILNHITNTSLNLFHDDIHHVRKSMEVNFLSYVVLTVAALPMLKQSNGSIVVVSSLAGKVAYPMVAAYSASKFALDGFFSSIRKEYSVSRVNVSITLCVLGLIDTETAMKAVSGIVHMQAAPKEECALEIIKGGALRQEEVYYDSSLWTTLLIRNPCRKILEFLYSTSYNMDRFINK
Test: In Vitro HSD11β1 Inhibition Assay
Conditions: CHO cells transiently expressing human HSD11β1; 200 nM cortisone+500 uM NADPH overnight; cortisone to cortisol by LC/MS-MS; read-out: 11βHSD1 (IC50)
pIC50: −log10 of the molar value.

INSERT INTO measurements (compound, result) VALUES
  ('CC(C)C(CC(=O)N1C2CC3CC1CC(O)(C3)C2)c1c[nH]c2cccc(F)c12 (centres unmarked)', '< 6.60'),
  ('Cc1cccc2[nH]cc(C(C)CC(=O)N3C4CC5CC3CC(C#N)(C5)C4)c12 (centres unmarked)', '6.70 to 6.82'),
  ('CC(CC(=O)N1C2CC3CC1CC(O)(C3)C2)c1c[nH]c2ccc(Cl)cc12 (centres unmarked)', '< 6.60'),
  ('COC12CC3CC(C1)N(C(=O)CC(C)c1c[nH]c4cccc(F)c14)C(C3)C2 (single isomer, unassigned) [Example 30]', '6.70 to 6.82'),
  ('CC(CC(=O)N1C2CC3CC1CC(C(=O)O)(C3)C2)c1c[nH]c2cccc(-c3ccco3)c12 (centres unmarked)', '< 6.60'),
  ('Cc1ccnc2[nH]cc(C(C)CC(=O)N3C4CC5CC3CC(O)(C5)C4)c12 (centres unmarked)', '< 6.60');

Answer for every listed entry: what is its pIC50? The entries follow.
1. O=C(CC(c1ccccc1)c1nc2ccccc2s1)N1C2CC3CC1CC(F)(C3)C2 (centres unmarked)
2. CC(CC(=O)N1C2CC3CC1CC(O)(C3)C2)c1c[nH]c2cccc(Cl)c12 (single isomer, unassigned) [Example 37]

a:
< 6.60
> 7.00

* * *

Molecular target: human full length HSD11β1 (Homo sapiens)
Construct: transient expression of human full length HSD11β1 expression vector
Assay: In Vitro HSD11β1 Inhibition Assay
Conditions: CHO cells transiently expressing human HSD11β1; 200 nM cortisone+500 uM NADPH overnight; cortisone to cortisol by LC/MS-MS; read-out: 11βHSD1 (IC50)
pIC50: −log10 of the molar value.
Give measured pIC50 for each item. Keep answers brief.

Could I get pIC50 for every one of these entries?
1. Cc1[nH]c2ccc(F)cc2c1C(C)CC(=O)N1C2CC3CC1CC(O)(C3)C2 (centres unmarked)
2. CC(CC(=O)N1C2CC3CC1CC(O)(C3)C2)c1cn(S(C)(=O)=O)c2cccc(Cl)c12 (centres unmarked)
3. CC(CC(=O)N1C2CC3CC1CC(O)(C3)C2)c1c[nH]c2ncccc12 (centres unmarked)
4. O=C(CC(c1ccccc1)c1c[nH]c2cc(Cl)ccc12)N1C2CC3CC1CC(C(=O)O)(C3)C2 (centres unmarked) [Compound 134]
5. CCCc1cccc2[nH]cc(CCC(=O)N3C4CC5CC3CC(O)(C5)C4)c12
6. Cc1c(F)ccc2[nH]cc(C(C)CC(=O)N3C4CC5CC3CC(O)(C5)C4)c12 (single isomer, unassigned) [Compound 147]
7. COc1ccc2[nH]cc(C(C)CC(=O)N3C4CC5CC3CC(C)(C5)C4)c2c1 (centres unmarked)
8. O=C(O)C1C2CC3CC(C2)N(C(=O)CC(c2cccs2)c2c[nH]c4cccc(F)c24)C1C3 (centres unmarked)

a:
1. < 6.60
2. < 6.60
3. < 6.60
4. 6.70 to 6.82
5. < 6.60
6. 6.82 to 7.00
7. > 7.00
8. < 6.60
